# Tested system: recombinant H1-HA (D18-I530), A/California/06/2009 (H1N1)pdm09 (Influenza A virus A/California/06/2009 …, UniProt C3W5S1, strain)
# Assay name: SPR
# Applied conditions: both partners purified
Field: koff. Provide a value for each of the binders that follow.
Form entry: value (s⁻¹) — number only.

Challenge: Tell me measured koff for R2b-E8 (VHH, source: E. coli WK6 periplasm, purified (Talon IMAC, Superdex 75 SEC)) VHH: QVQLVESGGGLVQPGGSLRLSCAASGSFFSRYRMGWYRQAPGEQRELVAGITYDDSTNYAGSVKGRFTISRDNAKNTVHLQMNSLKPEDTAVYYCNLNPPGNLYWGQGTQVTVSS please.
Response given: 0.000628

Challenge: Tell me measured koff for R2a-G9 (VHH, source: E. coli WK6 periplasm, purified (Talon IMAC, Superdex 75 SEC)) VHH: QVQLVESGGGLVQPGGSLRLSCAASDNIFSFYTMGWYRQSPGKERELVAVIGNGGNTNYADSVKGRFTISRDNGKNKAHLQMNSLKPEDTAVYYCKASGPGGVEVWGQGTQVTVSS please.
Response given: 0.00392
